# System: EKVX NSCLC
# assay_info: NCI tumour cell line growth inhibition, 48 h
Would you mind telling me the reported TGI of each entry?

Problem: Given the entry `COc1cc2c3c(n(CCCCNC(=O)OCC4c5ccccc5-c5ccccc54)c(=O)c2cc1OC)-c1cc2c(cc1C3=O)OCO2` , report its measured TGI.
Solution: > 100 µM

Problem: Given the entry `Cc1ccc(NC(=O)COC(=O)c2cccc3c(=O)c4ccccc4[nH]c23)cc1` , report its measured TGI.
Solution: > 100 µM

Problem: Given the entry `O=C(Nc1cccnc1)c1cccc([N+](=O)[O-])c1` , report its measured TGI.
Solution: > 100 µM

Data provenance is PubChem BioAssay (NCI).
